Entries annotated with measured log10 of EC50
Molecular target: FXR (Homo sapiens (Human))
Sequence (Q96RI1 262-486): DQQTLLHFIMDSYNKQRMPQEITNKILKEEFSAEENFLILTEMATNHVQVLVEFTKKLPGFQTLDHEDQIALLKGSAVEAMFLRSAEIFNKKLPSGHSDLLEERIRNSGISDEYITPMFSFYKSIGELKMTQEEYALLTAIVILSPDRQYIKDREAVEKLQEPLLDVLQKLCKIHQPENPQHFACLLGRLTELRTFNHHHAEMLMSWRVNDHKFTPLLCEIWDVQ
Assay: FXR EC50 (FXR agonist activity reported with each example)
Type: cell-based
Value Type: log10 of EC50 (log10 of the value in nM)

Compound	Value Type	Quantitative Result
O=C(O)c1ccc(-c2noc(C34CCC(OCc5c(-c6ccccc6C(F)(F)F)noc5C5CC5)(CC3)CC4)n2)cn1 [Example 46]	log10 of EC50	3.43
O=C(O)c1cc(-c2nc(C34CCC(OCc5c(-c6ccccc6C(F)(F)F)noc5C5CC5)(CC3)CC4)no2)ccn1 [Example 59]	log10 of EC50	3.58
O=C(O)c1cnc(C#CC23CCC(OCc4c(-c5c(Cl)cncc5Cl)noc4C4CC4)(CC2)CC3)c(F)c1 [Example 379]	log10 of EC50	2.38
COC(=O)c1ccc(-c2noc(C34CCC(C=Cc5c(-c6c(Cl)cccc6Cl)noc5C5CC5)(CC3)C4)n2)cc1 [Intermediate 226C]	log10 of EC50	3.40
CC(C)(C(N)=O)c1ccc(C23CCC(/C=C/c4c(-c5ccccc5C(F)(F)F)noc4C4CC4)(CC2)CO3)cc1 [Example 480]	log10 of EC50	3.00
O=C(O)c1cc(C(F)(F)F)c2cc(CCC34CCC(OCc5c(-c6c(Cl)cncc6Cl)noc5C5CC5)(CC3)CC4)ccc2n1 [Example 430]	log10 of EC50	1.38
O=C(O)c1cccc(-n2cc(C34CCC(OCc5c(-c6c(Cl)cccc6Cl)noc5C5CC5)(CC3)CC4)nn2)c1 [Example 131]	log10 of EC50	2.66
O=C(O)c1cccc(-c2noc(C34C5C6C3C3C4C5C63COCc3c(-c4c(Cl)cccc4Cl)noc3C3CC3)n2)c1 (stereo not drawn) [Example 513]	log10 of EC50	2.98
O=C(O)c1cc(OCC23CCC(/C=C/c4c(-c5c(Cl)cncc5Cl)noc4C4CC4)(CC2)CC3)cc(C(F)(F)F)c1 [Example 506]	log10 of EC50	0.78
O=C(O)c1cc(C(F)(F)F)cc(C23CCC(/C=C/c4c(-c5c(Cl)cncc5Cl)noc4C4CC4)(CC2)CO3)c1 [Example 491]	log10 of EC50	1.41
Cc1cc(OCC23CCC(/C=C/c4c(-c5c(Cl)cncc5Cl)noc4C4CC4)(CC2)CC3)c2cc(C(=O)O)cc(F)c2n1 [Example 447]	log10 of EC50	3.38
O=C(O)c1cc(C(F)(F)F)c2cc(OCC34CCC(/C=C/c5c(-c6c(Cl)cncc6Cl)noc5C5CC5)(CC3)CC4)ccc2n1 [Example 452]	log10 of EC50	1.15
O=C(O)c1ccc2cc(OCC34CCC(OCc5c(-c6c(Cl)cccc6Cl)noc5C5CC5)(CC3)CC4)ccc2n1 [Example 105]	log10 of EC50	1.88
N#Cc1cnc2ccc(OCC34CCC(OCc5c(-c6c(Cl)cncc6Cl)noc5C5CC5)(CC3)CC4)nn12 [Example 462]	log10 of EC50	2.34
O=C(O)c1cc(C(F)(F)F)c2cc(OCC34CCC(OCc5c(-c6c(Cl)cccc6Cl)noc5C5CC5)(CC3)CC4)ccc2n1 [Example 100]	log10 of EC50	0.85
O=C(O)c1ccc(F)c(-c2noc(C34CCC(OCc5c(-c6c(Cl)cncc6Cl)noc5C5CC5)(CC3)CC4)n2)c1 [Example 461]	log10 of EC50	2.28
O=C(O)c1ccc(F)c(-c2noc(C34CCC(COCc5c(-c6c(Cl)cncc6Cl)noc5C5CC5)(CC3)CC4)n2)c1 [Example 486]	log10 of EC50	3.43
O=C(O)c1cccc(-c2nc(C34CCC(OCc5c(-c6ccccc6C(F)(F)F)noc5C5CC5)(CC3)CC4)no2)c1 [Example 20]	log10 of EC50	2.71
O=C(O)c1cc(OC2CCC2)c2cc(OCC34CCC(OCc5c(-c6c(Cl)cncc6Cl)noc5C5CC5)(CC3)CC4)ccc2n1 [Example 344]	log10 of EC50	1.23
Cn1cc(C(=O)O)c2ccc(OCC34CCC(OCc5c(-c6c(Cl)cccc6Cl)noc5C5CC5)(CC3)CC4)cc21 [Example 90]	log10 of EC50	1.04
O=C(O)c1cc(F)c2nc(OCC34CCC(OCc5c(-c6ccccc6OC(F)(F)F)noc5C5CC5)(CC3)CC4)sc2c1 [Example 79]	log10 of EC50	2.11
COc1c(C(=O)O)cc(F)cc1-c1noc(C23CCC(OCc4c(-c5c(Cl)cncc5Cl)noc4C4CC4)(CC2)CC3)n1 [Example 245]	log10 of EC50	1.66
O=C(O)c1ccc(NC(=S)C23CCC(COCc4c(-c5c(Cl)cccc5Cl)noc4C4CC4)(CC2)CC3)c(Cl)c1 [Example 171]	log10 of EC50	3.67
O=C(O)c1cc(F)cc(OCC23CCC(OCc4c(-c5c(Cl)cccc5Cl)noc4C4CC4)(CC2)CC3)c1 [Example 94]	log10 of EC50	1.26
O=C(O)c1cc(-c2noc(C34CCC(OCc5c(-c6c(Cl)cccc6Cl)noc5C5CC5)(CC3)CC4)n2)ccc1F [Example 64]	log10 of EC50	2.15
O=C(O)c1ccc(C#CC23CCC(OCc4c(-c5c(Cl)cncc5Cl)noc4C4CC4)(CC2)CC3)nn1 [Example 419]	log10 of EC50	3.30
O=C(O)c1cccc(NCC23CCC(OCc4c(-c5ccccc5OC(F)(F)F)noc4C4CC4)(CC2)CC3)c1 [Example 85]	log10 of EC50	2.79

Hello, the source for this data is patent US10730863B2, in case you need it.
